- Test system: biotinyl-Trp-oxazolone
- testSummary: self-aminoacylation, catalytic enhancement (BWO) (fold over background); higher = more active; k-Seq, kA / k0A0; sequences stand for … in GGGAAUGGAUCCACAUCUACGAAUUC…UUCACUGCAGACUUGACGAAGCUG
Fewer inactive variants are shown than the library holds.
readoutType: self-aminoacylation
Lab note: write the figure by itself, no unit.

Solved cases (5 shown):
// query self-aminoacylation value for entry AUUACCCUGGUCACCGUGUGA [Fam2.1 aminoacylation ribozyme variant]
5.51

// query self-aminoacylation value for entry AUUCACCCAGGUCAUCGGAUG [Fam2.2 aminoacylation ribozyme variant]
1.07

// query self-aminoacylation value for entry AUUUACCUAGGUCAUCGCGUG [Fam2.2 aminoacylation ribozyme variant]
9.58

// query self-aminoacylation value for entry CCACACUUCAAGGAAGCGGUC [Fam1B.1 aminoacylation ribozyme variant]
0.619

// query self-aminoacylation value for entry AAGUUUGCUAAUAGUAGCAAG [Fam3.1 aminoacylation ribozyme variant]
0.96

---
// query self-aminoacylation value for entry CCAGACUUCAAGCAAACGGUC [Fam1B.1 aminoacylation ribozyme variant]
0.814

// query self-aminoacylation value for entry CCACACUUCAAGCAAUCGGAA [Fam1B.1 aminoacylation ribozyme variant]
1.18

// query self-aminoacylation value for entry AUUACUCUGGUCAGCGAGUGA [Fam2.1 aminoacylation ribozyme variant]
5.85

// query self-aminoacylation value for entry AAGUUUGGUAACAGUCGCAAG [Fam3.1 aminoacylation ribozyme variant]
0.693

---

- Tested on: biotinyl-Ile-oxazolone
- testSummary: self-aminoacylation, catalytic enhancement (BIO) (fold over background); higher = more active; k-Seq, kA / k0A0; sequences stand for … in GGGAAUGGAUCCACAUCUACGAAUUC…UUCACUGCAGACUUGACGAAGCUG
This sample holds only a part of the variants without activity.
readoutType: self-aminoacylation

// query self-aminoacylation value for entry AUUCACCAAUGUCAUCGGGUG [Fam2.2 aminoacylation ribozyme variant]
5.59

---
// query self-aminoacylation value for entry CCACGCUUCAAGCAAUGGGUC [Fam1B.1 aminoacylation ribozyme variant]
0.646

// query self-aminoacylation value for entry CCAUACUUCAAGCAAUCGGGC [Fam1B.1 aminoacylation ribozyme variant]
1.95

// query self-aminoacylation value for entry CUACUUCAAACAAUCGGACAG [Fam1A.1 aminoacylation ribozyme variant]
0.782

---

- Test system: biotinyl-Leu-oxazolone
- testSummary: self-aminoacylation, catalytic enhancement (BLO) (fold over background); higher = more active; k-Seq, kA / k0A0; sequences stand for … in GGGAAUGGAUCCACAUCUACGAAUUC…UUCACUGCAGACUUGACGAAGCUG
This sample holds only a part of the variants without activity.
Class key for self-aminoacylation values: Low = under 1, Medium = from 1 up to 3, High = 3 and over

Could you tell me which band AUUCACCUAUGUCAACGGGUG [Fam2.2 aminoacylation ribozyme variant] belongs to?
High

---

Reported self-aminoacylation by item:
- System: biotinyl-Leu-oxazolone
- testSummary: self-aminoacylation, catalytic enhancement (BLO) (fold over background); higher = more active; k-Seq, kA / k0A0; sequences stand for … in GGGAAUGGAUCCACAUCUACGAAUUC…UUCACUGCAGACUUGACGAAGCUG
This sample holds only a part of the variants without activity.
Lab note: write the figure by itself, no unit.

// query self-aminoacylation value for entry GCAAACUUCAAGCAAUCGGUC [Fam1B.1 aminoacylation ribozyme variant]
2.47

---

- System: biotinyl-Leu-oxazolone
- testSummary: self-aminoacylation, catalytic enhancement (BLO) (fold over background); higher = more active; k-Seq, kA / k0A0; sequences stand for … in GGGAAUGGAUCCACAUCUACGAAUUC…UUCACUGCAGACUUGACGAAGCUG
Fewer inactive variants are shown than the library holds.
// N strictly below 6 in self-aminoacylation; Y otherwise

# example entries with known answers
Quick check, self-aminoacylation >= 6? AUUGCCCUGGACAUCGAGUGA [Fam2.1 aminoacylation ribozyme variant]
N

Quick check, self-aminoacylation >= 6? UUUCACUUAGGUCAUCGGGUG [Fam2.2 aminoacylation ribozyme variant]
Y

Quick check, self-aminoacylation >= 6? AUUCACCUAUGUCGUCGGGUG [Fam2.2 aminoacylation ribozyme variant]
N

Quick check, self-aminoacylation >= 6? CUACUUCAAACGAUGGGUCUG [Fam1A.1 aminoacylation ribozyme variant]
N

Quick check, self-aminoacylation >= 6? AUUACCCUGGUCAUCCAGAGA [Fam2.1 aminoacylation ribozyme variant]
N

---
Quick check, self-aminoacylation >= 6? AUUACUGUGGUCAUCGAGUGA [Fam2.1 aminoacylation ribozyme variant]
N

Quick check, self-aminoacylation >= 6? UUACUUCAAACAAUCUGUCUG [Fam1A.1 aminoacylation ribozyme variant]
N

Quick check, self-aminoacylation >= 6? AUUCACCUAGGUCAUGGGGUA [Fam2.2 aminoacylation ribozyme variant]
N

Quick check, self-aminoacylation >= 6? ACUACCCUGGACAUCGAGUGA [Fam2.1 aminoacylation ribozyme variant]
Y

---

- Tested on: biotinyl-Val-oxazolone
- testSummary: self-aminoacylation, catalytic enhancement (BVO) (fold over background); higher = more active; k-Seq, kA / k0A0; sequences stand for … in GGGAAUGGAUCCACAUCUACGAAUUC…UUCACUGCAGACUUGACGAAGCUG
Variants at the floor of the assay were thinned out.
Reported self-aminoacylation by item:
Lab note: write the figure by itself, no unit.

Solved cases (4 shown):
// query self-aminoacylation value for entry AAGUUUGCUAAUAGUCUAAAG [Fam3.1 aminoacylation ribozyme variant]
1.28

// query self-aminoacylation value for entry UUACUUCACACAAUCGGUCUG [Fam1A.1 aminoacylation ribozyme variant]
1.28

// query self-aminoacylation value for entry CGACACUUCAAGAAAUCGGUC [Fam1B.1 aminoacylation ribozyme variant]
1.26

// query self-aminoacylation value for entry AUUCACCUGGGUCAUGGGGUG [Fam2.2 aminoacylation ribozyme variant]
4.9

# ---- query sequence ----
// query self-aminoacylation value for entry GUUACCCUGGUCAUCGAGUCA [Fam2.1 aminoacylation ribozyme variant]
1.46

---

- System: biotinyl-Phe-oxazolone
- testSummary: self-aminoacylation, catalytic enhancement (BFO) (fold over background); higher = more active; k-Seq, kA / k0A0; sequences stand for … in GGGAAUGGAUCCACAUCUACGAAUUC…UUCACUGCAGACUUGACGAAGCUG
Fewer inactive variants are shown than the library holds.
// F strictly below 30 in self-aminoacylation; T otherwise

Quick check, self-aminoacylation >= 30? AAGCUUGCUAAUAGUUGCAAG [Fam3.1 aminoacylation ribozyme variant]
F

Quick check, self-aminoacylation >= 30? AUUACGCUGGUCAUCGGGUGA [Fam2.1 aminoacylation ribozyme variant]
T

Quick check, self-aminoacylation >= 30? GUUCACCUGGGUCAUCGGGUG [Fam2.2 aminoacylation ribozyme variant]
T

Now turn to the next sequence.
Quick check, self-aminoacylation >= 30? AAGUUCGCUAAUACUCGCAAG [Fam3.1 aminoacylation ribozyme variant]
F

---

Reported self-aminoacylation by item:
- Test system: biotinyl-Ile-oxazolone
- testSummary: self-aminoacylation, catalytic enhancement (BIO) (fold over background); higher = more active; k-Seq, kA / k0A0; sequences stand for … in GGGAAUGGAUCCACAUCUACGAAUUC…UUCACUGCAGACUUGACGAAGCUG
Fewer inactive variants are shown than the library holds.

Solved cases (3 shown):
// query self-aminoacylation value for entry AUUCACCUCGGUCAACGGGUG [Fam2.2 aminoacylation ribozyme variant]
2.44

// query self-aminoacylation value for entry AAGUCUGCUAAUAGUCGCAAC [Fam3.1 aminoacylation ribozyme variant]
1.03

// query self-aminoacylation value for entry AUUCACCUAGGGCAUCCGGUG [Fam2.2 aminoacylation ribozyme variant]
10.5

---
// query self-aminoacylation value for entry AAUUUUGCUAAUAGUAGCAAG [Fam3.1 aminoacylation ribozyme variant]
1.41

// query self-aminoacylation value for entry AUUCACAUAGGUCAUGGGGUG [Fam2.2 aminoacylation ribozyme variant]
4.56

// query self-aminoacylation value for entry CUUCACCUAGGUCAUCAGGUG [Fam2.2 aminoacylation ribozyme variant]
1.46

---

- System: biotinyl-Leu-oxazolone
- testSummary: self-aminoacylation, catalytic enhancement (BLO) (fold over background); higher = more active; k-Seq, kA / k0A0; sequences stand for … in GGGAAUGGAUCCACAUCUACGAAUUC…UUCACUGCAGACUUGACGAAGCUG
Variants at the floor of the assay were thinned out.
Reported self-aminoacylation by item:
Lab note: write the figure by itself, no unit.

Solved cases (3 shown):
Notebook entry, biotinyl-Leu-oxazolone assay: self-aminoacylation of CGACUUCAAACAUUCGGUCUG [Fam1A.1 aminoacylation ribozyme variant] = ?
1.43

Notebook entry, biotinyl-Leu-oxazolone assay: self-aminoacylation of GUUACCCUGGUCAUCGCGUGA [Fam2.1 aminoacylation ribozyme variant] = ?
25.2

Notebook entry, biotinyl-Leu-oxazolone assay: self-aminoacylation of AUUCACCUAGGGCAUCCGGUG [Fam2.2 aminoacylation ribozyme variant] = ?
12.6

---
Notebook entry, biotinyl-Leu-oxazolone assay: self-aminoacylation of CGACACUUCAAACAAUCGGUC [Fam1B.1 aminoacylation ribozyme variant] = ?
1.71

Notebook entry, biotinyl-Leu-oxazolone assay: self-aminoacylation of GAGUUUGCUAAUUGUCGCAAG [Fam3.1 aminoacylation ribozyme variant] = ?
1.53

Notebook entry, biotinyl-Leu-oxazolone assay: self-aminoacylation of AUUCACCUAGCUCAUUGGGUG [Fam2.2 aminoacylation ribozyme variant] = ?
1.62

Notebook entry, biotinyl-Leu-oxazolone assay: self-aminoacylation of AUUCAGCUAGGUCAUGGGGUG [Fam2.2 aminoacylation ribozyme variant] = ?
2.94

Notebook entry, biotinyl-Leu-oxazolone assay: self-aminoacylation of AUUCCCAUAGGUCAUCGGGUG [Fam2.2 aminoacylation ribozyme variant] = ?
32.7

Entry source: the supplement of paper PMC9233669
